test system: MDA-MB-231 breast; experiment: NCI-60 one-dose screen, 48 h (100 = growth as untreated, 0 = no growth, -100 = all killed); conditions: 10 µM unless noted
Compounds without any hit were thinned out: in the full panel of roughly 83,000, 20% have a hit.
Documented growth across a set of compounds
Measure name: growth (%)

[
  {
    "Compound": "O=C1Nc2c(c(=O)n(-c3ccccc3)c3ccccc23)C(c2ccc(Cl)cc2)N1 (stereo not given)",
    "Observed": 89.1
  },
  {
    "Compound": "CC(=O)c1nn(-c2ccc(C)cc2)cc1C(=O)c1cc2c(ccc3ccccc32)oc1=O",
    "Observed": 73
  },
  {
    "Compound": "Oc1ccc([S+](c2ccc(O)cc2)c2ccc(O)cc2)cc1",
    "Observed": 117
  },
  {
    "Compound": "Cn1c2ccccc2c2ccccc21",
    "Observed": 108
  },
  {
    "Compound": "O=C(Oc1ccccc1)c1ccccc1Cl",
    "Observed": 111
  }
]

====

System: SW-620 colon
Assay: NCI-60 one-dose screen, 48 h
Conditions: 10 µM unless noted
Procedure: Growth inhibition of the SW-620 human tumor cell line is measured as a screen for anti-cancer activity. Cells are grown in 96 well plates and exposed to the test compound for 48 hours. Compounds are tested at a single concentration, which is 10^-5 M for most compounds. The reported endpoint is percent growth (GI% or GIPRCNT), where numbers from 0 - 100% represent growth inhibition, and numbers from -100% - 0 represent cell death. For example, a value of 40 represents 60% growth inhibition. […]
This is part of a sample that, as a whole, favours compounds with a hit. Of some 83,000 tested, about 20% had one in any assay. Active and inactive are the calls of the source. The calls were made as follows: active = growth percent below 10; inactive = the rest.
Possible outcomes: YES = active, NO = inactive

[
  {
    "Mol": "CCOC(=O)c1c(C)oc2ncnc(Nc3ccc(C(=O)NCCc4ccccc4)cc3)c12",
    "Class name": "NO"
  },
  {
    "Mol": "c1ccc(C(=NNc2nc3ccccc3o2)c2ccccn2)nc1",
    "Class name": "NO"
  },
  {
    "Mol": "CCCCS(=O)(=O)c1cc(Nc2ccc(O)c3c2C(=O)c2ccccc2C3=O)ccc1C",
    "Class name": "NO"
  },
  {
    "Mol": "O=C(/C=C/c1cccc(O)c1)c1cccc(-n2cc(-c3ccc(Cl)cc3)[nH]c2=O)c1",
    "Class name": "YES"
  },
  {
    "Mol": "Cn1cnc2nc[nH]c2c1=S",
    "Class name": "NO"
  },
  {
    "Mol": "CCc1c(C)c2ccc(OCC(=O)N=Nc3c(O)[nH]c4ccccc34)c(C)c2oc1=O",
    "Class name": "YES"
  }
]

====

system: HCC-2998 colon; test: NCI-60 one-dose screen, 48 h; details: 10 µM unless noted
The panel holds about 83,000 compounds, 20% with a hit somewhere; the sample as a whole holds those more often. Activity calls are given as the source filed them. The calls were made as follows: active = growth percent below 10; inactive = the rest.
Possible outcomes: Yes for active, No for inactive

[
  {
    "Compound": "CCOc1ccccc1/C=N\\N=C(N/N=C/c1ccccc1OCC)N/N=C/c1ccccc1OCC",
    "Class name": "No"
  },
  {
    "Compound": "COc1cc(/C=C/C(=O)/C=C(/C=C/c2ccc(OC(C)=O)c(OC)c2)OB(F)F)ccc1OC(C)=O",
    "Class name": "No"
  },
  {
    "Compound": "COc1ccc(C2=C/C(=C\\c3ccc(Cl)cc3)C(=O)NN2C(=S)NN)cc1",
    "Class name": "No"
  },
  {
    "Compound": "CCCCCCC(C(=O)OCC)(C(=O)OCC)C1CCCCCC1",
    "Class name": "No"
  },
  {
    "Compound": "O=C1C(Br)=CC2C1C1C3CCC3C2(Br)C12OCCO2 (stereo not given)",
    "Class name": "No"
  },
  {
    "Compound": "CCn1cnc(C[C@H](NC(=O)[C@@H](NC(=O)Nc2cc(C(F)(F)F)cc(C(F)(F)F)c2)C(C)C)C(=O)OC)c1",
    "Class name": "Yes"
  },
  {
    "Compound": "COc1cc(OC)cc(-c2ccc(-c3ccc(C(=N)N)cc3)s2)c1",
    "Class name": "Yes"
  },
  {
    "Compound": "Cc1c(C(N)=O)sc2c1c(=O)n(Cc1ccccc1)c1nnc(S(C)(=O)=O)n21",
    "Class name": "No"
  },
  {
    "Compound": "COC1NC(Cl)=C(C#N)C(C#N)(C#N)C1(C)C (stereo not given)",
    "Class name": "No"
  },
  {
    "Compound": "CNc1nc2ncn(C)c2c(=O)[nH]1",
    "Class name": "No"
  }
]

Data provenance is PubChem BioAssay (NCI).
